Target: T1, huCLL1-K244-Avi-Tev-His (human, UniProt Q5QGZ9 65-265);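 also: Bio-layer interferometry with scFvs captured on biosensors via anti-V5 antibody, exposed 2 min to CLL-1 K244 or Q244 protein, 5 min dissociation, scored as binding, no binding or ambiguous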
T1 construct: extracellular domain
T1 sequence (looked up): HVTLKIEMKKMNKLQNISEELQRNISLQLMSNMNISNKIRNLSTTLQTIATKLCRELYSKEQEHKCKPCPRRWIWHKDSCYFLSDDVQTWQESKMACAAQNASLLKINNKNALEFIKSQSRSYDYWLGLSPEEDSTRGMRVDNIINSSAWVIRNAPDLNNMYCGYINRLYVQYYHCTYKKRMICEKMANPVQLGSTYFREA
Test: BLI

BINDER: Polypeptide No. 43 (scFv, V domains shown, scFv) VH: QVQLVQSGAEVKKPGASVKVSCKASGYTFTNYYMHWVRQAPGQGLEWLGWISPYSGDTKYAQTLQGRVTMTRDTSTSTVYMELSSLRSEDTAVYYCARESMDRLDYWGQGTLVTVSS VL: DIQMTQSPSSLSASVGDRVTITCRASQSISTYLNWYQQKPGKAPKLLIYDASNLETGVPSRFSGSGSGTDFTLTISSLQPEDFATYYCQQSYSTPVLTFGGGTKVEIKR
binding result: binds
//
BINDER: Polypeptide No. 58 (scFv, V domains shown, scFv) VH: QVQLVQSGAEVKKPGASVKVSCKASGYTFTDYYLHWVRQAPGQGLEWMGWMNPNSGNTGYAQKFQGRVTMTRDTSTSTVYMELSSLRSEDTAVYYCAADVITAYGMDVWGQGTMVTVSS VL: DIQMTQSPSSLSASVGDRVTITCRASQGISNYLAWYQQKPGKAPKLLIYDASNLETGVPSRFSGSGSGTDFTLTISSLQPEDFATYYCQQSYNVPPTFGQGTKVEIKR
binding result: binds
//
BINDER: Polypeptide No. 59 (scFv, V domains shown, scFv) VH: EVQLLESGGGLVQPGGSLRLSCAASGFTFSNAWMSWVRQAPGKGLEWVADISYDGTNDYYADSVKGRFTISRDNSKNTLYLQMNSLRAEDTAVYYCTTEELRFGGFDYWGQGTLVTVSS VL: DIQMTQSPSSLSASVGDRVTITCRASQSISSYLNWYQQKPGKAPKLLIYDASNLETGVPSRFSGSGSGTDFTLTISSLQPEDFATYYCQQANSFPLTFGQGTKVEIKR
binding result: binds
